pKd values for the binders below.
Molecular target: T1, purified recombinant human VEGF165 (human, UniProt P15692 27-191, glycosylated)
T1 construct: mature; Bought from Calbiochem; also called VEGF protein (Calbiochem); homodimeric VEGF protein
T1 sequence (P15692 other isoform, or with tags, fused parts or gaps limits assumed): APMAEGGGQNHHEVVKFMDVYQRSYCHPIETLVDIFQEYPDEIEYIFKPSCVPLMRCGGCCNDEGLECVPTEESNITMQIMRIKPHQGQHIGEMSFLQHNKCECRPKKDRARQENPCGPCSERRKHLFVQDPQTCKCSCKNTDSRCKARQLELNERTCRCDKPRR
Assay: SPR (BIAcore), purified scFv over VEGF immobilized on CM5 chip, 25 C
# pKd: negative log10 of molar concentration; output just the value

Known pKd results, listed for orientation:
Record hAB3 (scFv, Single chain format; not shown: HA-His6 tag at C-terminus) scFv: EVQLVQSGGGVVQPGGSLRLSCAASGYTFTNYGMNWIRQAPGKGLEWVGWINTYTGEPTYAADFKRRVTFSLDTSKSTAYLQLNSLRAEDTAVYYCAKYPHYYGSSHWYFDVWGQGTLVTVSSGGGGSGGGGSGGGGSDIQMTQSPSSLSASVGDRVTITCSASQDISNYLNWYQQKPGKAPKVLIYFTSSLHSGVPSRFSGSGSGTDFTLTISSLQPEDFATYYCQQYSTVPWTFGQGTKVEIK . Reported pKd: 8.51

Record hAB11 (scFv, Single chain format; not shown: HA-His6 tag at C-terminus) scFv: EVQLVESGGGLVQPGGSLRLSCAASGYTFTNYGMNWVRQAPGKGLEWVGWINTYTGEPTYAADFKRRFTFSLDTSKSTAYLQMNSLRAEDTAVYYCAKYPHYYGRSHWYFDVWGQGTLVTVSSGGGGSGGGGSGGGGSDIQMTQSPSSLSASVGDRVTITCSASQDISNYLNWYQQKPGKAPKVLIYFTSSLHSGVPSRFSGSGSGTDFTLTISSLQPEDFATYYCQQYSTVPWTFGQGTKVEIK , field pKd: 8.27

Data point: hAB4 (scFv, Single chain format; not shown: HA-His6 tag at C-terminus) scFv: QVQLVQSGGGVVQPGGSLRLTCAASGYTFTNYGMNWVRQAPGKGLEWVGWINTYTGEPTYAADFKRRFTISLDTSKSQAYLQMNSLRAEDTAVYYCAKYPHYYGSSHWYFDVWGQGTLVTVSSGGGGSGGGGSGGGGSDIQMTQSPSSLSASVGDRVTITCSASQDISNYLNWYQQKPGKAPKVLIYFTSSLHSGVPSRFSGSGSGTDFTLTISSLQPEDFATYYCQQYSTVPWTFGQGTKVEIK ; pKd = 7.59

The binder listed as hAB5 (scFv, Single chain format; not shown: HA-His6 tag at C-terminus) scFv: EVQLVQSGGGVVQPGGTLRLTCAASGYTFTNYGMNWVRQAPGKGLEWVGWINTYTGEPTYAADFKRRVTFSLDTSKSTAYLQMNSLRAEDTAVYYCAKYPHYYGSSHWYFDVWGQGTLVTVSSGGGGSGGGGSGGGGSDIQMTQSPSSLSASVGDRVTITCSASQDISNYLNWYQQKPGKAPKVLIYFTSSLHSGVPSRFSGSGSGTDFTLTISSLQPEDFATYYCQQYSTVPWTFGQGTKVEIK shows pKd equal to 8.23

Query hAB10 (scFv, Single chain format; not shown: HA-His6 tag at C-terminus) scFv: EVQLVESGGGLVQPGGSLRLSCAASGYTFTNYGMNWVRQAPGKGLEWVGWINTYTGEPTYAADFKRRFTFSLDTSKSTAYLQMNSLRAEDTAVYYCAKYPYYYGTSHWYFDVWGQGTLVTVSSGGGGSGGGGSGGGGSDIQMTQSPSSLSASVGDRVTITCSASQDISNYLNWYQQKPGKAPKVLIYFTSSLHSGVPSRFSGSGSGTDFTLTISSLQPEDFATYYCQQYSTVPWTFGQGTKVEIK yields pKd of 8.66

Proceeding to the next binder to report its pKd.
pKd for hAB12 (scFv, Single chain format; not shown: HA-His6 tag at C-terminus) scFv: EVQLVESGGGLVQPGGSLRLSCAASGYTFTNYGMNWVRQAPGKGLEWVGWINTYTGEPTYAADFKRRFTFSLDTSKSTAYLQMNSLRAEDTAVYYCAKYPYYYGRSHWYFDVWGQGTLVTVSSGGGGSGGGGSGGGGSDIQMTQSPSSLSASVGDRVTITCSASQDISNYLNWYQQKPGKAPKVLIYFTSSLHSGVPSRFSGSGSGTDFTLTISSLQPEDFATYYCQQYSTVPWTFGQGTKVEIK is 8.82
